Data provenance is patent US8003595B2.

Experiment description: ELISA fixation of biotinylated peptides on sensitized plates
Assay type: binding
Setup conditions: read-out: avidity (Kd), quantity of peptides necessary to obtain 50% fixation, Chondroitin C; Table 5
Where no end group is shown, it is not given here.
Reported property: Kd
Write your answer as a measured quantity: the number, then the unit.

Use these answered entries as a reference point.
YRSRKYSSWYYALKR [SEQ ID NO: 34]; 25 nM
RKGFYKRKQCKP [SEQ ID NO: 20]; 100 nM
LRRERQSRLRRERSQSR [SEQ ID NO: 39]; 100 nM
GKRKKKGKLGKKRDP [SEQ ID NO: 30]; 19 nM

Which Kd value is on record for QGKSKREKKDRVF [SEQ ID NO: 37] ?
93 nM

Which Kd value is on record for GRPRESGKKRKRKRLKP [SEQ ID NO: 21] ?
12 nM

Which Kd value is on record for GLKKNGSCKRGPR [SEQ ID NO: 33] ?
110 nM

Which Kd value is on record for VKRGLKLVKRGLKLVKRGLKL [SEQ ID NO: 3] ?
35 nM

Which Kd value is on record for AKTGKRKRSG [SEQ ID NO: 36] ?
205 nM

###

Experiment description: ELISA fixation of biotinylated peptides on sensitized plates
Assay type: binding
Setup conditions: read-out: avidity (Kd), quantity of peptides necessary to obtain 50% fixation, Heparin; Table 5; listed as HBP8
Reported property: pKd
On this scale, pKd is minus log10 of a concentration expressed in M (mol/L).

Which pKd value is on record for GLKKNGSCKRGPR [SEQ ID NO: 33] ?
6.77

###

Tested on: Salmonella typhimurim (clinical isolate)
Experiment description: Antibacterial activity of cationic peptides (MBC)
Format: cell-based
Setup conditions: S. typhimurium
Where no end group is shown, it is not given here.
Listed here: items and their measured MBC.
Enter your answer as a number in µM; do not include the unit.

KLAKLAKKLAKLAKKHLKKHLKKHLK [SEQ ID NO: 45]; 1

Let's switch to this sequence now.
Which MBC value is on record for KLAKLAKKLAKLAKGKRKKKGKLGKKRDP [SEQ ID NO: 44] ?
1.27
